Origin of measurements: patent US20200317816A1

Task for the reader: assign each of the following binders its reported percentage reversal of NOV1401 aPTT prolongation, NOV1401/anti NOV1401 ratio 1/10 (n/n).
Biological target: anti-FXI/FXIa antibody NOV1401
Sequence (VH, as listed by the source, chain 1 of 2): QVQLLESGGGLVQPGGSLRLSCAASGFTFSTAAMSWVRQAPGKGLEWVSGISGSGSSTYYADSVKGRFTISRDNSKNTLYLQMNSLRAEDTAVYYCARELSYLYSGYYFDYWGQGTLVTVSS
Sequence (VL, as listed by the source, chain 2 of 2): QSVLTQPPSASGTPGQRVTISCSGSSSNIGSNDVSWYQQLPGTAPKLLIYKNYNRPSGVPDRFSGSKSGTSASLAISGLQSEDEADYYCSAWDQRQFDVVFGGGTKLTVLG
Test: cell-based or functional assay
// return numeric value only (unit: %, not printed)

Fill in: percentage reversal of NOV1401 aPTT prolongation, NOV1401/anti NOV1401 ratio 1/10 (n/n) of IDT9 anti-NOV1401 Fab (Fab, V domains shown, Human Fab; The heavy chain entry is VH-CH1 (Fd); also called antidote) VH: QVQLVQSGAEVKKPGASVKVSCKASGYTFTNYYVHWVRQAPGQGLEWMGWINPYNGNTNYAQKFQGRVTMTRDTSISTAYMELSRLRSEDTAVYYCARGASSIRMSYYLDVWGQGTLVTVSS VL: DIQMTQSPSSLSASVGDRVTITCRASQSISNYLNWYQQKPGKAPKLLIYAASNLQSGVPSRFSGSGSGTDFTLTISSLQPEDFATYYCFQYTHSPATFGQGTKVEIKR is ___
46

Fill in: percentage reversal of NOV1401 aPTT prolongation, NOV1401/anti NOV1401 ratio 1/10 (n/n) of IDT4 anti-NOV1401 Fab (Fab, V domains shown, Human Fab; The heavy chain entry is VH-CH1 (Fd); also called antidote) VH: QVQLVESGGGLVKPGGSLRLSCAASGFTFSSAAVHWVRQAPGKGLEWVGRIKSKASGGTTDYAAPVKGRFTISRDDSKNTLYLQMNSLKTEDTAVYYCARDSPSISSYSIPYFSGMDVWGQGTLVTVSS VL: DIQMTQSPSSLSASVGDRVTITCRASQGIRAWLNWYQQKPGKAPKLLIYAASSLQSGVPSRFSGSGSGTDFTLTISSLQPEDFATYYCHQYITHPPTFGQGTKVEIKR is ___
39

Fill in: percentage reversal of NOV1401 aPTT prolongation, NOV1401/anti NOV1401 ratio 1/10 (n/n) of IDT5 anti-NOV1401 Fab (Fab, V domains shown, Human Fab; The heavy chain entry is VH-CH1 (Fd); also called antidote) VH: QVQLVESGGGLVKPGGSLRLSCAASGFTFSSAAVHWVRQAPGKGLEWVGRIKSKADAGTTDYAAPVKGRFTISRDDSKNTLYLQMNSLKTEDTAVYYCARDSPSISSYSIPYFSGMDVWGQGTLVTVSS VL: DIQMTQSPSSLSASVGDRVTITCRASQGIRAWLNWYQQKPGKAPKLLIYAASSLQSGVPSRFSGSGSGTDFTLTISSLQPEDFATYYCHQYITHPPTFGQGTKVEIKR is ___
56

Fill in: percentage reversal of NOV1401 aPTT prolongation, NOV1401/anti NOV1401 ratio 1/10 (n/n) of IDT8 anti-NOV1401 Fab (Fab, V domains shown, Human Fab; The heavy chain entry is VH-CH1 (Fd); also called antidote) VH: QVQLVESGGGLVKPGGSLRLSCAASGFTFSSNAMHWVRQAPGKGLEWVGRIKSKTSGGTTDYAAPVKGRFTISRDDSKNTLYLQMNSLKTEDTAVYYCARDHYYYPFAYWGQGTLVTVSS VL: DIQMTQSPSSLSASVGDRVTITCRASQSIRYNLAWYQQKPGKAPKLLIYAASSLQSGVPSRFSGSGSGTDFTLTISSLQPEDFATYYCHQYIAKPITFGQGTKVEIKR is ___
42

Fill in: percentage reversal of NOV1401 aPTT prolongation, NOV1401/anti NOV1401 ratio 1/10 (n/n) of IDT6 anti-NOV1401 Fab (Fab, V domains shown, Human Fab with a lambda light chain; The heavy chain entry is VH-CH1 (Fd); also called antidote) VH: QVQLVQSGAEVKKPGESLKISCKGSGYSFTNYWIGWVRQMPGKGLEWMGIIFPGVSYTKYSPSFQGQVTISADKSISTAYLQWSSLKASDTAMYYCARGSDQTLRGSRAMDYWGQGTLVTVSS VL: QSALTQPASVSGSPGQSITISCTGTSSDVGISNYVSWYQQHPGKAPKLMIYEVSNRPSGVSNRFSGSKSGNTASLTISGLQAEDEADYYCQSYTSLNYVFGGGTKLTVLG is ___
38
